assay: AUC in CD-1 nude mouse at 80 mg/kg, po administered twice daily and measured on day 1 by HPLC-MS analysis; format: ADME, organism-based; design: dose 80 mg/kg, time 1 day, route po; settings: in vivo
attribute_measured: AUC at 24 h
Give the value; after it, write the unit.

// query AUC at 24 h value for entry Nc1ccc(C#CCN(C(=O)Cc2ncc(C(F)(F)F)cc2C(F)(F)F)c2ccc(F)cc2)nn1
32.6 µM·h

====

conditions: mouse, microsomes
Description: Metabolic stability in mouse liver microsomes assessed as clearance
attribute_measured: CLH (µL/min/mg)
Give the value, in units of µL/min/mg, as a plain number.

Which CLH is reported for this molecule? O=C(Cc1ccc(C(F)(F)F)cc1C(F)(F)F)N(CC#Cc1cccnc1)c1ccccc1
110

Here is the next molecule: O=C(NCC#CCN(C(=O)Cc1ccc(C(F)(F)F)cc1C(F)(F)F)c1ccccc1)c1cccnc1
492

Then this molecule: CN(C(=O)Cn1nc2c(c1C(F)(F)F)CNCC2)c1ccccc1
16

Try N#CCN(C(=O)Cc1ccc(C(F)(F)F)cc1C(F)(F)F)c1ccccc1 next.
115

Now consider [2H]C([2H])([2H])N(C(=O)Cc1ccc(C(F)(F)F)cc1C(F)(F)F)c1ccc(F)cc1 .
52

For O=C(Cc1ccc(C(F)(F)F)cc1C(F)(F)F)N(CC#Cc1cccc(=O)[nH]1)c1ccccc1 then?
39

Try Cn1cncc1C#CCN(C(=O)Cc1ccc(C(F)(F)F)cc1C(F)(F)F)c1ccccc1 next.
57

Data credit: ChEMBL document CHEMBL5108047
